Cited source for all entries: the supplement of paper PMC9112550

Test system: Escherichia coli TOP10;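 note: peptides expressed intracellularly from a pBAD plasmid library in pooled LB shake-flask culture, induced with 0.3% L-arabinose, DNA abundance read by NGS, three biological replicates, DESeq2 with apeglm shrinkage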
Assay: shrunken log2 fold change of peptide-encoding DNA abundance (4.5 h post-induction vs induction); higher = less antimicrobial activity (less host growth inhibition)
Conditions: time post-induction: 4.5 h; library: site-saturation at positions 5, 18, 19, 20
Note: every record was labeled by where its shrunken log2 fold change sits among bottom end: < -0.2; midrange: ≥ -0.2 and < -0.06; top end: ≥ -0.06

Tag the class for RRIRDRPPRLPRPRPRPGRQPRP
top end

Categorize the following entry: RRIRTRPPRLPRPRPRPQVKPRP
midrange

For RRIRFRPPRLPRPRPRPCDAPRP , which shrunken log2 fold change bin applies?
bottom end

GET /class?item= RRIRNRPPRLPRPRPRPLAYPRP
midrange

Given RRIRHRPPRLPRPRPRPPCWPRP , name the class its shrunken log2 fold change places it in.
top end

Class label required: RRIRKRPPRLPRPRPRPRTLPRP
top end

Determine which band this sequence sits in: RRIRMRPPRLPRPRPRPWTDPRP
top end

Returns: class label. Input: RRIRHRPPRLPRPRPRPSRVPRP
midrange

Which category does the recorded shrunken log2 fold change put RRIRCRPPRLPRPRPRPNHMPRP in?
bottom end

Looking at RRIRKRPPRLPRPRPRPSWCPRP , which class would you pick?
midrange

Using the reported shrunken log2 fold change, which band applies to RRIRQRPPRLPRPRPRPEGCPRP ?
midrange

Form: Item = RRIRFRPPRLPRPRPRPAIQPRP ; Class = ?
midrange

Class for RRIRTRPPRLPRPRPRPPMNPRP ?
bottom end
